Tested on: RPMI8226
Test: Cancer cell panel, cell viability (resazurin): multiple myeloma, RPMI8226
Assay type: cell-based
Conditions: Homo sapiens, RPMI-8226, 72 hours, single agent, read-out: Example 3 IC50
RECORDED ENDPOINT: pIC50
Value format note: pIC50 is -log10 of concentration (mol/L); just state the number.

Give the value of pIC50 reported for the following: C[S@+]([O-])Cc1cc(Nc2cc(NC3CC3)n3ncc(C#N)c3n2)ccc1Cl
6.63

====

pKi: −log10 of the molar value. Structures can show the parent of a compound that is named as a salt.
RECORDED ENDPOINT: pKi

Give purified CK2α enzyme (Homo sapiens) pKi for the following compound: CS(=O)(=O)Cc1cc(Nc2cc(NC3CC3)n3ncc(C#N)c3n2)ccc1N1CC(N)C1 [Example 41]
8.00 to 8.60

Give purified CK2α enzyme (Homo sapiens) pKi for the following compound: CN(CCN)c1ccc(Nc2cc(NC3CC3)c3ncc(C#N)n3n2)cc1CS(C)(=O)=O [Example 48, mono trifluoroacetic acid salt]
8.00 to 8.60

Give purified CK2α enzyme (Homo sapiens) pKi for the following compound: CN(CCN)c1ccc(Nc2nc(NC3CC3)n3ncc(C#N)c3n2)cc1C[S+](C)[O-] (racemic) [Example 51, mono trifluoroacetic acid salt]
> 8.60

Give purified CK2α enzyme (Homo sapiens) pKi for the following compound: CN(CCN)c1ccc(Nc2cc(NC3CC3)n3ncc(C#N)c3n2)cc1C[S+](C)[O-] (racemic) [Example 7, mono trifluoroacetic acid salt]
> 8.60

Give purified CK2α enzyme (Homo sapiens) pKi for the following compound: C/C(=C\CN)c1ccc(Nc2cc(NC3CC3)n3ncc(C#N)c3n2)cc1C[S+](C)[O-] (racemic) [Example 60, mono trifluoroacetic acid salt]
> 8.60

Give purified CK2α enzyme (Homo sapiens) pKi for the following compound: C[S+]([O-])Cc1cc(Nc2cc(NC3CC3)n3ncc(C#N)c3n2)ccc1OCC(C)(C)N (racemic) [Example 30, mono trifluoroacetic acid salt]
8.00 to 8.60

Give purified CK2α enzyme (Homo sapiens) pKi for the following compound: CN(C)Cc1ccc(Nc2cc(Nc3ccc(C4CC4)c(C[S+](C)[O-])c3)nc3c(C#N)cnn23)nc1 (racemic) [Example 69]
> 8.60

Give purified CK2α enzyme (Homo sapiens) pKi for the following compound: CS(=O)(=O)Cc1cc(Nc2cc(NC3CC3)n3ncc(C#N)c3n2)ccc1C1(CN)CC1 [Example 39, mono trifluoroacetic acid salt]
> 8.60

Give purified CK2α enzyme (Homo sapiens) pKi for the following compound: C[S+]([O-])Cc1cc(Nc2cc(NC3CC3)n3ncc(C#N)c3n2)ccc1CN (racemic) [Example 15, mono trifluoroacetic acid salt]
8.00 to 8.60

Give purified CK2α enzyme (Homo sapiens) pKi for the following compound: C[S+]([O-])Cc1cc(Nc2cc(NC3CC3)n3ncc(C#N)c3n2)ccc1C1=CCCNC1.O=C(O)C(F)(F)F (racemic) [Example 53, mono trifluoroacetic acid salt]
8.00 to 8.60

Give purified CK2α enzyme (Homo sapiens) pKi for the following compound: C[S+]([O-])Cc1cc(Nc2cc(Nc3ccc(N)cn3)n3ncc(C#N)c3n2)ccc1N1CC[C@H](N)C1 (mixture of isomers) [Example 68]
> 8.60

Give purified CK2α enzyme (Homo sapiens) pKi for the following compound: CN(CC1(N)CC1)c1ccc(Nc2cc(NC3CC3)n3ncc(C#N)c3n2)cc1CS(C)(=O)=O [Example 66, mono trifluoroacetic acid salt]
> 8.60

Give purified CK2α enzyme (Homo sapiens) pKi for the following compound: CNCCN(C)c1ccc(Nc2cc(NC3CC3)n3ncc(C#N)c3n2)cc1C[S+](C)[O-] (racemic) [Example 21, mono trifluoroacetic acid salt]
> 8.60

Give purified CK2α enzyme (Homo sapiens) pKi for the following compound: C[S+]([O-])Cc1cc(Nc2cc(NC3CC3)n3ncc(C#N)c3n2)ccc1CCN (racemic) [Example 8, mono trifluoroacetic acid salt]
> 8.60

Give purified CK2α enzyme (Homo sapiens) pKi for the following compound: COc1ccc(Nc2cc(NC3CC3)n3ncc(C#N)c3n2)cc1CS(C)(=O)=O [Example 18]
> 8.60

Give purified CK2α enzyme (Homo sapiens) pKi for the following compound: CN(CCN)c1ccc(Nc2nc(NC3CC3)c3ncc(C#N)n3n2)cc1C[S+](C)[O-] (racemic) [Example 49, mono trifluoroacetic acid salt]
8.00 to 8.60

Give purified CK2α enzyme (Homo sapiens) pKi for the following compound: C[S+]([O-])Cc1cc(Nc2cc(NC3CC3)n3ncc(C#N)c3n2)ccc1N1CCC[C@H](N)C1 (stereo partly shown) [Example 25, mono trifluoroacetic acid salt]
> 8.60

Give purified CK2α enzyme (Homo sapiens) pKi for the following compound: C[S+]([O-])Cc1cc(Nc2cc(NC3CC3)n3ncc(C#N)c3n2)ccc1N1CC[C@@H](N)C1 (stereo partly shown) [Example 22, mono trifluoroacetic acid salt]
> 8.60

Give purified CK2α enzyme (Homo sapiens) pKi for the following compound: CS(=O)(=O)Cc1cc(Nc2cc(NC3CC3)n3ncc(C#N)c3n2)ccc1Cl [Example 2]
> 8.60

Give purified CK2α enzyme (Homo sapiens) pKi for the following compound: C[S+]([O-])Cc1cc(Nc2cc(NC3CC3)n3ncc(C#N)c3n2)ccc1N1CCC[C@@H](N)C1 (stereo partly shown) [Example 24, mono trifluoroacetic acid salt]
> 8.60

Give purified CK2α enzyme (Homo sapiens) pKi for the following compound: C[S+]([O-])Cc1cc(Nc2cc(NC3CC3)n3ncc(C#N)c3n2)ccc1C1(CN)CC1 (racemic) [Example 38]
8.00 to 8.60

Give purified CK2α enzyme (Homo sapiens) pKi for the following compound: C[S+]([O-])Cc1cc(Nc2cc(NC3CC3)n3ncc(C#N)c3n2)ccc1C1(N)CC1 (racemic) [Example 59, mono trifluoroacetic acid salt]
8.00 to 8.60

Give purified CK2α enzyme (Homo sapiens) pKi for the following compound: CN(CCN)c1ccc(Nc2cc(NC3CC3)n3ncc(C#N)c3n2)cc1CS(C)(=O)=O [Example 10, mono trifluoroacetic acid salt]
> 8.60

Give purified CK2α enzyme (Homo sapiens) pKi for the following compound: CS(=O)(=O)Cc1cc(Nc2cc(NC3CC3)n3ncc(C#N)c3n2)ccc1OCCN.Cl [Example 26]
8.00 to 8.60

Give purified CK2α enzyme (Homo sapiens) pKi for the following compound: C[S+]([O-])Cc1cc(Nc2cc(NC3CC3)n3ncc(C#N)c3n2)ccc1C1CCNC1 (racemic) [Example 63, mono trifluoroacetic acid salt]
8.00 to 8.60
